Provide the reported normalized growth of each item.
assay-remarks: chemical genetic growth profiling, strain panel (AID 1159580);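 also: tested at 20 µM; growth read once vehicle control cultures reached saturation at 30 °C; 1 = growth at the plate median or of vehicle wells; lower values mean less growth of the strain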
condition-label: S. cerevisiae deletion strains, growth OD, locus YML124C, strain tub3, hits give low values
About 2,000 (36%) of roughly 5,500 compounds were called active. Another 18% or so got no clear call; they are omitted. The list shows a part of the results.

Worked set:
- CC(=O)C1CC[C@H]2C3CC[C@H]4C[C@H](O)CC[C@]4(C)C3CC[C@]12C (some centres undefined): 0.996 (inactive)
- CC(=O)C1CCC2C3CCC4C[C@H](O)CCC4(C)C3C[C@H](O)C12C (some centres undefined): 0.998 (inactive)
- CC(C)(S)[C@@H](N)C(=O)O: 0.994 (inactive)
- Clc1ccc(COC(Cn2ccnc2)c2ccc(Cl)cc2Cl)cc1 (centres undefined): 0.06 (active)
- O=c1cccc2n1CC1CC2CN2CCCC[C@@H]12 (some centres undefined): 0.978 (inactive)
- O=C(O)C(O)C(O)C(=O)O (centres undefined): 0.997 (inactive)
- CC1[C@H](C)OC(=O)CC(O)CC(O)CC(O)CCC(O)C(O)C[C@]2(O)CC(O)C(C(=O)O)C(CC(OC3O[C@H](C)[C@@H](O)[C@H](N)[C@@H]3O)/C=C/C=C/C=C/C=C/CC/C=C/C=C/[C@H](C)[C@H]1O)O2 (some centres undefined): 0.103 (active)
- COc1ccc2oc3ccccc3c(=O)c2c1: 0.902 (active)
- O=C(O)CCC1NCC2CC1CN1CCCCC21 (centres undefined): 0.997 (inactive)
- COc1ccc(-c2cc(=O)c3c(OC)cc(OC)cc3o2)cc1: 1 (inactive)

Hi, could you look up normalized growth for each item in my list?
1. NC1(C(=O)O)CC1
2. OC[C@H]1O[C@@H](n2cnc3c(NCc4ccco4)ncnc32)[C@H](O)[C@@H]1O
3. COc1cc(OC)c2c(=O)cc(-c3ccccc3)oc2c1

stdout:
1.02 (inactive)
0.996 (inactive)
0.952 (inactive)

stdin: For Cc1nnc(NS(=O)(=O)c2ccc(N)cc2)s1 , what is its reported normalized growth?
stdout: 1 (inactive)
